# protocol: physchem
# experimental_parameters: pH 7.4, aqueous buffer, kinetic from dmso stock, Solubility (pH 7.4)
measured_parameter: solubility at 24 h (µg/mL)
Report the value in µg/mL with no unit label.

In [3]: df
Out[3]:
                                   compound  measured_parameter  measure_unit  meas_value
0  CCNC(=O)Nc1nc2cc(-c3cnc(N4CCC(=O)C(C)(C(=O)OC)C4)nc3)cc(-c3ccccn3)c2s1 (stereo not shown) [Compound 170]  solubility at 24 h         µg/mL        6.25

Here is the next item to consider.
Q. Param item = CCNC(=O)Nc1nc2cc(-c3cnc(N4CCC(C)(C(=O)O)CC4)nc3)cc(-c3cncc(OC(C)(C)C)n3)c2s1 [Compound 73] ; retrieve measured solubility at 24 h.
A. 400

====

Catalogue of solubility at 24 h readings, one per entry.
# protocol: physchem
# experimental_parameters: pH 7.4, aqueous buffer, kinetic from dmso stock, Solubility (pH 7.4)
Report as a plain number; the unit µg/mL is understood.

Illustrative cases are given below, each with its answer.
                                   compound  measure_unit  meas_value
0  CCNC(=O)Nc1nc2cc(-c3cnc(N4CCC(C)(C(=O)O)CC4)nc3)cc(-c3cc(F)ccn3)c2s1 [Compound 10]         µg/mL         100
1  CCCC1(C(=O)O)CCN(c2ncc(-c3cc(-c4cnccn4)c4sc(NC(=O)NCC)nc4c3)cn2)CC1 [Compound 118]         µg/mL         400
2  CCNC(=O)Nc1nc2cc(-c3cnc(N4CCC(CC)(C(=O)O)CC4)cn3)cc(-c3nccc(C)n3)c2s1 [Compound 112]         µg/mL          25

Please look at the following compound next.
Q. Can you look up the measured solubility at 24 h of CCNC(=O)Nc1nc2cc(-c3cnc(N4CCC(C)(C(=O)O)CC4)nc3)c(OC)c(Br)c2s1 [Compound 208] for me?
A. 100

====

# protocol: Pharmacokinetic assay, IV and oral PK profile, mouse
# Type: in vivo
# experimental_parameters: plasma, po, [AUCoral/AUCiv]×100%, 3 mg/kg, read-out: F (%) bioavailability
measured_parameter: bioavailability (%)
Enter your answer as a number in %; do not include the unit.

                                   compound  meas_value
0  C=CCC1(C(=O)O)CCN(c2ncc(-c3cc(-c4ccccn4)c4sc(NC(=O)NCC)nc4c3)cn2)CC1 [Compound 136]          83
1  CCNC(=O)Nc1nc2cc(-c3ccc(N4CCC(C)(C(=O)O)CC4)nc3)cc(-c3ccccn3)c2s1 [Compound 4]          33

Q. GET /values?readout=bioavailability&item= CCNC(=O)Nc1nc2cc(-c3cnc(N4CCC(C)(C(=O)O)CC4)nc3)cc(/C(C)=N/OC)c2s1 [Compound 88]
A. 56

Q. Form field: reported bioavailability of CCNC(=O)Nc1nc2cc(-c3cnc(N4CCC(CC)(C(=O)O)CC4)nc3)cc(-c3ccccn3)c2s1 [Compound 98]
A. 87

====

The following molecules are listed with their measured solubility at 24 h values.
# protocol: physchem
# experimental_parameters: pH 9, aqueous buffer, kinetic from dmso stock, Max Solubility

// solved cases for solubility at 24 h follow
>>> df
                                   molecule   meas_value
0  CCNC(=O)Nc1nc2cc(-c3ccc(N4CCC(CC)(C(=O)O)CC4)nc3)cc(-c3ccccn3)c2s1  ≥ 800 µg/mL
1  CCNC(=O)Nc1nc2cc(-c3cnc(N4CCC(C)(C(=O)O)CC4)nc3)ccc2s1    400 µg/mL
2  CCNC(=O)Nc1nc2cc(-c3cnc(N4CCC(C)(C(=O)O)CC4)nc3)cc(-c3cc(OC(C)C)ncn3)c2s1  ≥ 800 µg/mL
3  CCNC(=O)Nc1nc2cc(-c3cnc(N4CCC(C)(C(=O)O)CC4)nc3)cc(-c3cncc(OC(C)(C)C)n3)c2s1  ≥ 800 µg/mL

Q. Given the molecule CCCC1(C(=O)O)CCN(c2ncc(-c3cc(-c4nccc(C)n4)c4sc(NC(=O)NCC)nc4c3)cn2)CC1 , what is its reported solubility at 24 h?
A. ≥ 800 µg/mL

Q. solubility at 24 h for CCNC(=O)Nc1nc2cc(-c3cnc(N4CCC(C)(C(=O)O)CC4)nc3)cc(-c3ccc(C#N)c(C)n3)c2s1 ?
A. 50 µg/mL

Q. Look up solubility at 24 h for this molecule: CCNC(=O)Nc1nc2cc(-c3cnc(N4CCC(CC)(C(=O)O)CC4)nc3)cc(/C(CC)=N\OC)c2s1
A. 400 µg/mL
